- Tested on: NCI-H322M lung
- experimental_protocol: NCI-60 one-dose screen, 48 h
- applied_conditions: 10 µM unless noted
This is part of a sample that, as a whole, favours compounds with a hit. Of some 83,000 tested, about 20% had one in any assay. Active and inactive are the calls of the source. How the source made its calls: active means growth percent below 10; inactive means the rest.
Can you answer with just one of these options? 1 (yes) = active, 0 (no) = inactive

Can you look up the reported call for "COC(=O)c1cc2c(=O)[nH]cc3c2c(n1)CCC3" for me?
0 (no)

Input "COc1ccc(/C=C/C(=C/c2c(O)[nH]c3cc(Br)ccc23)N=O)cc1"
0 (no)

Input "CC1(C)S[C@@H]2[C@H](NC(=O)[C@H](C(=O)O)c3cccs3)C(=O)N2[C@H]1C(=O)O"
0 (no)

Input "COCc1nc2ccccc2[nH]1"
0 (no)

Input "Cc1cc(C)nc(SCC(=O)Nc2cccc(N=Cc3ccccc3O)c2)n1"
0 (no)

Input "Nc1nc(Nc2ccccc2)c2ncn(Cc3ccc4c(c3)OCO4)c2n1"
0 (no)

Input "O=c1cc(-c2ccccc2)oc2cc(OCc3cn(Cc4ccc(F)cc4)nn3)cc(O)c12"
0 (no)

----------
- Tested on: SK-MEL-28 melanoma
- experimental_protocol: NCI-60 one-dose screen, 48 h (100 = growth as untreated, 0 = no growth, -100 = all killed)
- applied_conditions: 10 µM unless noted
About 83,000 compounds went through this panel and 20% of them were active in at least one assay; those are over-represented in the sample as a whole. Activity calls are given as the source filed them. The calls were made as follows: active = growth percent below 10; inactive = the rest.
Readings of growth for the listed compounds

• O=C(N=c1n(-c2ccccc2)nc2n1CCN2C1=NCCN1C(=O)c1ccc(Cl)cc1)c1ccc(Cl)cc1 = 88.8% (inactive)
• COc1cc(OC)cc(C(=O)Nc2cc(-c3cccnc3)nc(NCCCN3CCOCC3)n2)c1 = 101% (inactive)
• CSc1nc2c(c(=O)n1C)C1(C(=O)N(Cc3ccccc3)c3ccccc31)c1c(nc(SC)n(C)c1=O)N2 = 104% (inactive)
• O=C(CCN1CCCCC1)c1ccc2ccccc2c1 = 112% (inactive)
• Cc1ccc(-c2cn(C/C=C3\C=CN(S(=O)(=O)c4ccccc4)CC3)nn2)cc1 = 101% (inactive)

Fill blank: measured growth of the compound "CC(C)=CC/C=C(/C)[C@H]1CC[C@]2(C)[C@@H]1CC[C@@H]1[C@@]3(C)CC/C(=N/O)C(C)(C)[C@@H]3CC[C@]12C" is ____.
73.3% [100 µM] (inactive)

Input "O=[N+]([O-])c1cc([N+](=O)[O-])c(C(F)(F)F)cc1NN=C(c1ccc(O)cc1)c1ccc(O)cc1"
94.8% (inactive)

Input "Nc1cc(N)c(N=Nc2ccc(S(=O)(=O)O)cc2)cc1N=Nc1ccc(-c2ccc(N=Nc3ccc(O)c(C(=O)O)c3)cc2)cc1"
106% (inactive)

----------
- Tested on: HCT-15 colon
- experimental_protocol: NCI-60 one-dose screen, 48 h (100 = growth as untreated, 0 = no growth, -100 = all killed)
- applied_conditions: 10 µM unless noted
The panel holds about 83,000 compounds, 20% with a hit somewhere; the sample as a whole holds those more often.
Readings of growth for the listed compounds
Numeric only. Scale: %

• Cn1cc(-c2nnc(-c3cn(C)c4ncc(Br)cc34)s2)c2cc(Br)ccc21 = 98.4
• CCCCCn1c(C)cc(/C=C\c2ccc3cc(C)ccc3[n+]2C)c1C = -12
• O=[N+]([O-])c1cccc(/C=C/c2ccc3ccccc3n2)c1 = 82.5
• CCOc1ccc2sc(NS(=O)(=O)c3ccc(N)cc3)nc2c1 = 107

Okay, next one:
Fill blank: measured growth of the compound "COc1ccc(NCc2cn(-c3ccc(C(=O)O)cc3)nc2-c2ccc(C(=O)O)cc2)cc1C(F)(F)F" is ____.
105

Every entry's value here was drawn from PubChem BioAssay (NCI).
